Provide the recorded inhibition for the entries that follow.
- targetOrSystem: Ephrin type-A receptor 4 (Homo sapiens) (UniProt P54764)
- Sequence (P54764 whole entry): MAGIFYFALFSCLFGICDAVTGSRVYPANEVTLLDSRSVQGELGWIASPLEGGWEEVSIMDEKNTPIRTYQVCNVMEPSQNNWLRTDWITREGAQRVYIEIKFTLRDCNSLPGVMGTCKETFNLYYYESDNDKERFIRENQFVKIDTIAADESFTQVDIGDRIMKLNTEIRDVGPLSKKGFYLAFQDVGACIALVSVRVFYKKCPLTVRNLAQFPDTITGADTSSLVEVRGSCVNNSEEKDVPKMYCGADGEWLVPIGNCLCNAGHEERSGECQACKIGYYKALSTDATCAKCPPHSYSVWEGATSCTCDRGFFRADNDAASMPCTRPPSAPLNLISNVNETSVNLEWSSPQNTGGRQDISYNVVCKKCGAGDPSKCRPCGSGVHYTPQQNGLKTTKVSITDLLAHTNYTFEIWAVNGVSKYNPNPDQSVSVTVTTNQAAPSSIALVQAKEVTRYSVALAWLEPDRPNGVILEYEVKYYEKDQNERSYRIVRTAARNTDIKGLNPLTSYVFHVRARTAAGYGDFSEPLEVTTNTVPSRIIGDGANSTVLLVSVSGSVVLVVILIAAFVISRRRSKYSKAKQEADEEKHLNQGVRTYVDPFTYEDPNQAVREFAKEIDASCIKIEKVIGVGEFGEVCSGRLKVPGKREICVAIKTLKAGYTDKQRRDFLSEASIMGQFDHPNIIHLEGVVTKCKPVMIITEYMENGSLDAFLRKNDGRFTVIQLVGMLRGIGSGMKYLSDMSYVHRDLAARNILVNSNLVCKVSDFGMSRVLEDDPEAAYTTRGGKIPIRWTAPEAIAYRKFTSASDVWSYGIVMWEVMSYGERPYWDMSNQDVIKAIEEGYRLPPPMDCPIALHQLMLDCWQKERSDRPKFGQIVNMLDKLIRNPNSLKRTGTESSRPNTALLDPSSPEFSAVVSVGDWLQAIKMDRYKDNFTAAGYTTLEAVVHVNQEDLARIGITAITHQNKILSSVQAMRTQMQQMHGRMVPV
- experimentalConditions: at 1 µM
- Description: GSK_PKIS: EPHA4 mean inhibition at 1 uM [Nanosyn]

**Q:** State, in one line, measured inhibition of `c1cnn2ncc(-c3ccnc(NCCCN4CCOCC4)n3)c2c1`
**A:** 5.87%

**Q:** State, in one line, measured inhibition of CC1=C(C(=O)Nc2ccc3[nH]nc(C)c3c2)C(c2ccc(C(F)(F)F)cc2)CC(=O)N1 (centres undefined)
**A:** 5.67%

**Q:** State, in one line, measured inhibition of `CS(=O)(=O)Nc1ccc(-c2ccc3c(NC(=O)C4CC4)n[nH]c3c2)cc1`
**A:** 1.08%

**Q:** State, in one line, measured inhibition of `NS(=O)(=O)c1ccc(N/N=C2\C(=O)Nc3cccc(CCc4ccncc4)c32)cc1`
**A:** 5.47%

**Q:** State, in one line, measured inhibition of `NC(=O)c1ccc2c(-c3ccnc(NCCCO)n3)c(-c3ccc(F)cc3)nn2c1`
**A:** 29.7%

**Q:** State, in one line, measured inhibition of `COC(=O)Nc1nc2ccc(Oc3ccc(NC(=O)Nc4cc(C(F)(F)F)ccc4F)cc3)cc2s1`
**A:** 86.1%

**Q:** State, in one line, measured inhibition of `CNC(=O)c1sc(-n2cnc3cc(OC)c(OC)cc32)cc1OCc1ccccc1C(F)(F)F`
**A:** 13.2%

**Q:** State, in one line, measured inhibition of `COc1c(C(N)=O)cc(-c2ccc(Cl)cc2)cc1-c1ccc(S(N)(=O)=O)cc1`
**A:** 10.1%

**Q:** State, in one line, measured inhibition of `O=C(O[C@H]1CN[C@H](C#Cc2cc3ncnc(Nc4ccc(OCc5cccc(F)c5)c(Cl)c4)c3s2)C1)N1CCOCC1`
**A:** 12.3%
